- ASSAY_SYSTEM: Mineralocorticoid receptor (Homo sapiens)
- Sequence (P08235 whole entry): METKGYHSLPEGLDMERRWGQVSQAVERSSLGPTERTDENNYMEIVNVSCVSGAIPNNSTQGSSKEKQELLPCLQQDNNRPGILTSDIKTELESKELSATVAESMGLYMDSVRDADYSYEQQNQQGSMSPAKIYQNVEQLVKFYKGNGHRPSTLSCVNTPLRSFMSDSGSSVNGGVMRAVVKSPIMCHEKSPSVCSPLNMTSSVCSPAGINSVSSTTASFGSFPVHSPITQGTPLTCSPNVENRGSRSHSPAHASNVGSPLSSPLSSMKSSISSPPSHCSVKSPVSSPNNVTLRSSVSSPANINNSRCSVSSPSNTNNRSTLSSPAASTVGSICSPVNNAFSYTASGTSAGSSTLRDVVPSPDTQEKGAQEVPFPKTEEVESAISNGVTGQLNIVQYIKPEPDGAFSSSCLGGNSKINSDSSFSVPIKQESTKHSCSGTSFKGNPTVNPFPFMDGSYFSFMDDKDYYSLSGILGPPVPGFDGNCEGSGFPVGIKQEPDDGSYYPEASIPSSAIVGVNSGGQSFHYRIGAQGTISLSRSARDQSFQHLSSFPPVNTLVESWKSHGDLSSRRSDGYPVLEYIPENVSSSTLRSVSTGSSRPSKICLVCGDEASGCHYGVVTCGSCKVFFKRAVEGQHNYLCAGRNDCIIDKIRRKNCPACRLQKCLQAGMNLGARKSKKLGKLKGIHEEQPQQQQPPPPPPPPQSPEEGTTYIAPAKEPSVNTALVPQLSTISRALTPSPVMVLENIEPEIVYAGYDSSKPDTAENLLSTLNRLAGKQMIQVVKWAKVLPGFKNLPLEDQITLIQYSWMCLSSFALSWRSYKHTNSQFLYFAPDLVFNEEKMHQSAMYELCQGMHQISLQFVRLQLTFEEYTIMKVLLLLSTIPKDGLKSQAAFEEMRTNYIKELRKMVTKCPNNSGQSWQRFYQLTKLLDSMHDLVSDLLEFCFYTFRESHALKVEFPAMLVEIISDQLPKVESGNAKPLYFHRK
pEC50: −log10 of the molar value.
Would you kindly list pEC50 for each of these compounds?

// known answers, use as guide
CC(C)CCN1C[C@@H]2C[C@H]3[C@@H]4C[C@H](F)C5=CC(=O)C=C[C@]5(C)[C@@]4(F)[C@@H](O)C[C@]3(C)[C@]2(C(=O)SCF)C1
< 5.52
CN(C)C(=O)[C@@]12CN(Cc3ccccc3)C[C@@H]1C[C@H]1[C@@H]3C[C@H](F)C4=CC(=O)C=C[C@]4(C)[C@@]3(F)[C@@H](O)C[C@@]12C
< 5.52

Turning now to a further record.
Prompt: What does the data say about its pEC50? Entry: "C[C@]12C=CC(=O)C=C1[C@@H](F)C[C@H]1[C@@H]3C[C@H]4CN(Cc5cccc(Cl)c5)C[C@@]4(C(=O)SCF)[C@@]3(C)C[C@H](O)[C@@]12F"
Response: < 5.52

Hey, just so you know, these numbers are from ChEMBL document CHEMBL4184331.
